Let's go through some MIC S. aureus measurements on S. aureus together.
Where no end group is shown, it is not given here.

LHIHAHFHVHIHLHF [Peptide S3L8-8, LHIHAHFHVHIHLHF]: >125 µg/mL
FLFKHLFLHRIFF [Peptide S3L8-16, FLFKHLFLHRIFF]: >125 µg/mL
LRLFLRHRF [Peptide S3L8-41, LRLFLRHRF]: >125 µg/mL
VFLHRHVIKHKLVF [Peptide S3L8-13, VFLHRHVIKHKLVF]: >125 µg/mL
LILKFLFKFVF [Peptide S3L8-32, LILKFLFKFVF]: 16 µg/mL

QUERY: Which MIC S. aureus value is on record for FIRKFLFKHLF [Peptide S3L8-26, FIRKFLFKHLF] ?
RESULT: 62.5 µg/mL

QUERY: Which MIC S. aureus value is on record for FKFLFKFLF [Peptide S3L8-38, FKFLFKFLF] ?
RESULT: >125 µg/mL

QUERY: Which MIC S. aureus value is on record for FHIKFRVHLKVRFHF [Peptide S3L8-6, FHIKFRVHLKVRFHF] ?
RESULT: >125 µg/mL

###

System: clinical isolates of S. mutans
Format: cell-based, Streptococcus mutans
Conditions: clinical isolates of
Where no end group is shown, it is not given here.
assayMetric: MIC S. mutans

FKFKHKLIF [Peptide S3L8-36, FKFKHKLIF]: >125 µg/mL
VLKHVIAHKRLF [Peptide S3L8-25, VLKHVIAHKRLF]: >125 µg/mL

Turning now to a further sequence:
QUERY: Which MIC S. mutans value is on record for VFKRVLIHKLIF [Peptide S3L8-23, VFKRVLIHKLIF] ?
RESULT: >125 µg/mL

###

# MIC S. mutans per record follows
Tested on: clinical isolates of S. mutans
Assay type: cell-based, Streptococcus mutans
Settings: clinical isolates of
Where no end group is shown, it is not given here.

LKHKLKHKF [Peptide S3L8-35, LKHKLKHKF]: >125 µg/mL
FRHRFRHRF [Peptide S3L8-34, FRHRFRHRF]: >125 µg/mL

Turning now to a further sequence:
QUERY: Which MIC S. mutans value is on record for LILKFLFKFVF [Peptide S3L8-32, LILKFLFKFVF] ?
RESULT: 31 µg/mL

###

System: V. atypica PK1910
Type: cell-based, Veillonella atypica
Where no end group is shown, it is not given here.
Doc: threshold 20 µg/mL (exclusive). Items with MIC V. atypica PK1910 beneath it return MET; others return NOT MET.

Worked cases, answers included:
IKQLLHFFQRF-NH2 [Peptide B-38, IKQLLHFFQRF*]: NOT MET
FKKFWKWFRRF-NH2 [Peptide B-33, FKKFWKWFRRF*]: MET
LKRFLKWFKRFGGGRWRWRWF-NH2 [FBRW-16, LKRFLKWFKRF-GGG-RWRWRWF*]: MET
RWRWRWF-NH2 [Peptide 2C-4, RWRWRWF*]: NOT MET

QUERY: Field: below-cutoff. Rule: recorded MIC V. atypica PK1910 strictly less than 20 µg/mL. Subject: RWRRLLKKLHHLLH-NH2 [α-11, RWRRLLKKLHHLLH*]
RESULT: MET

QUERY: Field: below-cutoff. Rule: recorded MIC V. atypica PK1910 strictly less than 20 µg/mL. Subject: RRRWWWF-NH2 [Peptide 2C-3, RRRWWWF*]
RESULT: NOT MET

QUERY: Field: below-cutoff. Rule: recorded MIC V. atypica PK1910 strictly less than 20 µg/mL. Subject: LKRFLKWFKRF-NH2 [Peptide B-34, LKRFLKWFKRF*]
RESULT: NOT MET

QUERY: Field: below-cutoff. Rule: recorded MIC V. atypica PK1910 strictly less than 20 µg/mL. Subject: RWRWRWFGGGLKRFLKWFKRF-NH2 [FBRW-24, RWRWRWF-GGG-LKRFLKWFKRF*]
RESULT: MET

QUERY: Field: below-cutoff. Rule: recorded MIC V. atypica PK1910 strictly less than 20 µg/mL. Subject: IKQLLHFFQRFGGGRWRWRWF-NH2 [FBRW-15, IKQLLHFFQRF-GGG-RWRWRWF*]
RESULT: MET
